experimentNotes: Pharmacokinetic study, romidepsin in plasma
details: mouse, in vivo, ip, 2.5 mg/kg
assayEndpoint: Cmax (ng/mL)
Kindly answer with a numeric value in ng/mL, unit omitted.

Task: Give reported Cmax value for C/C=C1\NC(=O)[C@H]2CSSCC/C=C/[C@H](CC(=O)N[C@H](C(C)C)C(=O)N2)OC(=O)[C@H](C(C)C)NC1=O
Output: 120

###

experimentNotes: Pharmacokinetic study, romidepsin in plasma
details: mouse, in vivo, ip, 2.5 mg/kg
assayEndpoint: AUC(0-inf) (ng·h/mL)
Kindly answer with a numeric value in ng·h/mL, unit omitted.

Task: Give reported AUC(0-inf) value for C/C=C1\NC(=O)[C@H]2CSSCC/C=C/[C@H](CC(=O)N[C@H](C(C)C)C(=O)N2)OC(=O)[C@H](C(C)C)NC1=O
Output: 1930

###

experimentNotes: Pharmacokinetic study, romidepsin in plasma
details: mouse, in vivo, ip, 2.5 mg/kg
assayEndpoint: Vd/F
# output: numeric value plus its unit

Task: Give reported Vd/F value for C/C=C1\NC(=O)[C@H]2CSSCC/C=C/[C@H](CC(=O)N[C@H](C(C)C)C(=O)N2)OC(=O)[C@H](C(C)C)NC1=O [Romidepsin]
Output: 20 L/kg

###

experimentNotes: Pharmacokinetic study, romidepsin in plasma
details: mouse, in vivo, iv, 2.5 mg/kg
assayEndpoint: MRT inf (h)
Kindly answer with a numeric value in h, unit omitted.

Task: Give reported MRT inf value for C/C=C1\NC(=O)[C@H]2CSSCC/C=C/[C@H](CC(=O)N[C@H](C(C)C)C(=O)N2)OC(=O)[C@H](C(C)C)NC1=O [Romidepsin]
Output: 5.53

###

experimentNotes: Pharmacokinetic study, romidepsin in plasma
details: mouse, in vivo, ip, 2.5 mg/kg
Method: Each treatment cohort was further divided into two sub-cohorts depending upon the route of administration (IP or IV). […] Mice were sacrificed (n=3 per time point) at 1, 3, 6, 18, 24, 48, and 72 hours after the treatment. Blood (˜1 mL) was collected via terminal cardiac puncture under CO2 anesthesia and collected in EDTA-coated K3EDTA tubes followed by centrifugation (2000×g for 15 min) to isolate plasma. […]
assayEndpoint: half-life (h)
Kindly answer with a numeric value in h, unit omitted.

Task: Give reported half-life value for C/C=C1\NC(=O)[C@H]2CSSCC/C=C/[C@H](CC(=O)N[C@H](C(C)C)C(=O)N2)OC(=O)[C@H](C(C)C)NC1=O [Romidepsin]
Output: 9.83

###

System: HH (CTCL)
experimentNotes: Cell viability assay ([…]-GLO)
Assay type: cell-based
details: Homo sapiens, 60 h, read-out: IC50 in nM at 60 Hours
assayEndpoint: IC50 (nM)
Kindly answer with a numeric value in nM, unit omitted.

Task: Give reported IC50 value for C/C=C1\NC(=O)[C@H]2CSSCC/C=C/[C@H](CC(=O)N[C@H](C(C)C)C(=O)N2)OC(=O)[C@H](C(C)C)NC1=O
Output: 1.3

###

experimentNotes: Pharmacokinetic study, romidepsin in plasma
details: mouse, in vivo, iv, 2.5 mg/kg
assayEndpoint: AUC(0-t) (ng·h/mL)
Kindly answer with a numeric value in ng·h/mL, unit omitted.

Task: Give reported AUC(0-t) value for C/C=C1\NC(=O)[C@H]2CSSCC/C=C/[C@H](CC(=O)N[C@H](C(C)C)C(=O)N2)OC(=O)[C@H](C(C)C)NC1=O [Romidepsin]
Output: 99.3
